B1: PWWP2B (parent)
chain: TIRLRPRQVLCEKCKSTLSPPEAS

# Variants of: B1
# test_method_notes: protein stability index of a GFP-peptide fusion (GPS, HEK-293T) (PSI 1-6); higher = more stable;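 note: lentivirally expressed fusions sorted by FACS into six bins by GFP to DsRed ratio, PSI derived from sequencing read proportions per bin multiplied by bin number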
# particulars: c terminus: a fixed tail appended
measured_endpoint: protein stability index
When you answer, write just the number.

Task item: Entry under review: TIRLRPRQVLCEKCKSTMSPPEAS [L18M] . Reported protein stability index?
Reply: 3.94

Task item: Entry under review: TIRLRPRQWLCEKCKSTLSPPEAS [V9W] . Reported protein stability index?
Reply: 2.24

Task item: Entry under review: TIRLRPRQVLCERCKSTLSPPEAS [K13R] . Reported protein stability index?
Reply: 3.37

Task item: Entry under review: TIRLRPRQVLCEKCKSTLSPIEAS [P21I] . Reported protein stability index?
Reply: 2.67

Task item: Entry under review: TIRLRPRQVLCEKCKSTLNPPEAS [S19N] . Reported protein stability index?
Reply: 3.25

Task item: Entry under review: TIRLRPRQVLCEKYKSTLSPPEAS [C14Y] . Reported protein stability index?
Reply: 3.45

Task item: Entry under review: TIRLRPRQVLCEKCKSTLDPPEAS [S19D] . Reported protein stability index?
Reply: 3.68

Task item: Entry under review: TIRLRPRVVLCEKCKSTLSPPEAS [Q8V] . Reported protein stability index?
Reply: 2.35

Task item: Entry under review: TIRLRPRYVLCEKCKSTLSPPEAS [Q8Y] . Reported protein stability index?
Reply: 2.74

Task item: Entry under review: TIRLRPRQVLCEKCKSTLSPPGAS [E22G] . Reported protein stability index?
Reply: 2.18

Task item: Entry under review: QIRLRPRQVLCEKCKSTLSPPEAS [T1Q] . Reported protein stability index?
Reply: 3.11

Task item: Entry under review: TIRLRPRQVLCEKCKSTLSPLEAS [P21L] . Reported protein stability index?
Reply: 2.08

Task item: Entry under review: TIRLRPRQVLCEKCKSTPSPPEAS [L18P] . Reported protein stability index?
Reply: 3.94

Task item: Entry under review: TIRLRPRQVLCEKCKSHLSPPEAS [T17H] . Reported protein stability index?
Reply: 2.76

Task item: Entry under review: TIRLRPRQVLCEKCKSTLSPFEAS [P21F] . Reported protein stability index?
Reply: 2.56

Task item: Entry under review: TIRLRPRQVLCEKCKSTLSPPERS [A23R] . Reported protein stability index?
Reply: 2.73

Task item: Entry under review: TIRLRPRQVLCEKCKSTLSPPEAK [S24K] . Reported protein stability index?
Reply: 2.7

Task item: Entry under review: TIRLRPRQRLCEKCKSTLSPPEAS [V9R] . Reported protein stability index?
Reply: 2.94

Task item: Entry under review: TIRLIPRQVLCEKCKSTLSPPEAS [R5I] . Reported protein stability index?
Reply: 2.93

Task item: Entry under review: TIRLRPRQVLCEKCKYTLSPPEAS [S16Y] . Reported protein stability index?
Reply: 2.27

Task item: Entry under review: TIRLRPRQVWCEKCKSTLSPPEAS [L10W] . Reported protein stability index?
Reply: 2.48

Task item: Entry under review: TIRLRPRQVLCEKCKSTLWPPEAS [S19W] . Reported protein stability index?
Reply: 1.84

Task item: Entry under review: TIRLRPRQVLMEKCKSTLSPPEAS [C11M] . Reported protein stability index?
Reply: 2.86

Task item: Entry under review: TIRLRPRQVLCEKCKSTLSPPEYS [A23Y] . Reported protein stability index?
Reply: 2.47

Task item: Entry under review: TIRLRPRQVHCEKCKSTLSPPEAS [L10H] . Reported protein stability index?
Reply: 3.3

Task item: Entry under review: SIRLRPRQVLCEKCKSTLSPPEAS [T1S] . Reported protein stability index?
Reply: 2.98

Task item: Entry under review: TIRLRPRQVLCEKCKSTLSGPEAS [P20G] . Reported protein stability index?
Reply: 3.29

Task item: Entry under review: TIRLRPRQVLCEKCKSTLSPPCAS [E22C] . Reported protein stability index?
Reply: 2.42

Task item: Entry under review: TIRLRPRQVECEKCKSTLSPPEAS [L10E] . Reported protein stability index?
Reply: 3.35

Task item: Entry under review: TIRLRPRQVLCENCKSTLSPPEAS [K13N] . Reported protein stability index?
Reply: 2.78

Task item: Entry under review: TIRLRPMQVLCEKCKSTLSPPEAS [R7M] . Reported protein stability index?
Reply: 2.92

Task item: Entry under review: TIRLRPRQVLCEKCKSTLSDPEAS [P20D] . Reported protein stability index?
Reply: 3.5

Task item: Entry under review: TIRLRPRQVLCEKCKSTASPPEAS [L18A] . Reported protein stability index?
Reply: 2.86

Task item: Entry under review: TIRLRPRQYLCEKCKSTLSPPEAS [V9Y] . Reported protein stability index?
Reply: 2.54

Task item: Entry under review: TIRLRPNQVLCEKCKSTLSPPEAS [R7N] . Reported protein stability index?
Reply: 2.87

Task item: Entry under review: RIRLRPRQVLCEKCKSTLSPPEAS [T1R] . Reported protein stability index?
Reply: 2.65

Task item: Entry under review: TIRLRPRQVLLEKCKSTLSPPEAS [C11L] . Reported protein stability index?
Reply: 2.84

Task item: Entry under review: TIRLRPRQVLCEKCKLTLSPPEAS [S16L] . Reported protein stability index?
Reply: 2.59

Task item: Entry under review: TIRLRPRQCLCEKCKSTLSPPEAS [V9C] . Reported protein stability index?
Reply: 3.42

Task item: Entry under review: TIRLRPRQVLCWKCKSTLSPPEAS [E12W] . Reported protein stability index?
Reply: 2.28

Task item: Entry under review: TTRLRPRQVLCEKCKSTLSPPEAS [I2T] . Reported protein stability index?
Reply: 3.85

Task item: Entry under review: TIRLRPRQVICEKCKSTLSPPEAS [L10I] . Reported protein stability index?
Reply: 2.83

Task item: Entry under review: TIRLRPRPVLCEKCKSTLSPPEAS [Q8P] . Reported protein stability index?
Reply: 3.06

Task item: Entry under review: TIRLRPRQVLCNKCKSTLSPPEAS [E12N] . Reported protein stability index?
Reply: 2.81

Task item: Entry under review: TIRLPPRQVLCEKCKSTLSPPEAS [R5P] . Reported protein stability index?
Reply: 3.54

Task item: Entry under review: TIRLRPRQVLCCKCKSTLSPPEAS [E12C] . Reported protein stability index?
Reply: 2.26

Numbers sourced from the supplement of paper PMC10567573.
